B1: ZNF24 (parent)
chain: THTKEQILELVVLEQFVAILPKEL

# Variants of: B1
# TEST_DESCRIPTION: protein stability index of a GFP-peptide fusion (GPS, HEK-293T) (PSI 1-6); higher = more stable;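 further: lentivirally expressed fusions sorted by FACS into six bins by GFP to DsRed ratio, PSI derived from sequencing read proportions per bin multiplied by bin number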
# CONDITION_LABEL: c terminus: a fixed tail appended
RESULT_TYPE: protein stability index
Answer with the value's number alone.

# MUT, protein stability index
rows = [
    ("Q6H", 1.8),
    ("L13S", 1.55),
    ("I7C", 1.59),
    ("K4R", 1.59),
    ("L10A", 2.28),
    ("E23S", 2.01),
    ("T1P", 3.09),
    ("I7P", 2.48),
    ("E23T", 1.75),
    ("V11G", 2.05),
]

Summary for this variant, I19Q : protein stability index is 2.01

Recorded result, L10R , protein stability index: 1.72
